test system: Mycobacterium tuberculosis; experiment: Cornell M. t heat shock assay; assay type: functional, organism-based; design: dose or concentration left out as unconfirmed; note: in the data most compounds retested in dose-response had high values
The whole screen tested about 69,000 compounds, of which about 950 (1.4%) showed an effect of 50% or more. The list comes from a sample in which strong results are over-represented; it also holds close analogues and randomly drawn compounds.
RECORDED_ENDPOINT: Percent Effect (%)
Note: unit % is implicit; provide only the numeric part.

Worked cases, answers included:
INSERT INTO assay_data (compound, recorded_endpoint, assay_value) VALUES
  ('CC(C)N(C)Cc1cnc2n1CCN(S(=O)(=O)c1ccccc1)C2.O=C(O)C(F)(F)F', 'Percent Effect', -26.7),
  ('COc1ccccc1NC(=O)N1CCCC1c1ccco1 (stereo unspecified)', 'Percent Effect', 40.09),
  ('CCc1ccc(CN(CCN(C)C)Cc2ccc(C)s2)nc1', 'Percent Effect', 88.98),
  ('CN(Cc1cncnc1)[C@H]1CN(C(=O)c2ccco2)[C@@H]2CCCO[C@@H]21', 'Percent Effect', -2.729),
  ('Cc1cccnc1CN1CC[C@H](Oc2cccc(F)c2)[C@@](C)(O)C1', 'Percent Effect', 104.4),
  ('O=C(NCCCN1CCOCC1)c1ccc(-n2ccc3ccccc32)s1', 'Percent Effect', 14.99);

query: Indicate the recorded Percent Effect value for this compound: `CC(=O)OC1CN(c2nc3c(C)cccc3s2)C1`
result: -13.72

query: Indicate the recorded Percent Effect value for this compound: `Cn1cc(CN2C[C@@H]3COC[C@@H](C(=O)N4CCCCO4)[C@@H]3C2)cn1.O=C(O)C(F)(F)F.O=C(O)C(F)(F)F`
result: 6.742

query: Indicate the recorded Percent Effect value for this compound: O=C(O)C(F)(F)F.c1cc(CN2CCc3c(nnn3CC3CC3)C2COCC2CC2)co1 (stereo unspecified)
result: -36.71

query: Indicate the recorded Percent Effect value for this compound: `Cc1nccc(CN2CC[C@H](Oc3cccc(F)c3)[C@@](C)(O)C2)n1`
result: -10.08

query: Indicate the recorded Percent Effect value for this compound: `CCC1=N[C@@]2(CC[C@@H]3CN(Cc4ccc(F)cc4)C[C@@H]32)C(=O)N1C.O=C(O)C(F)(F)F`
result: 6.299

query: Indicate the recorded Percent Effect value for this compound: `Cc1cnccc1CN1CC[C@H](Oc2cccc(F)c2)[C@@](C)(O)C1`
result: 101.8
